# Test system: Wolbachia pipientis
# Test Name: Anti-Wolbachia Cell-Based Screen
# Assay type: functional
# Set-up: scale not given: in the data most compounds retested in dose-response had high values
# Conditions Used: 5 µM
Screen size: about 48,000 compounds; about 13,000 (27%) showed an effect of 50% or more. The list shows a part of the results.
Measurement Name: Percent Effect (%)

INSERT INTO measurements (compound, subject_of_test, measurement_name, endpoint_unit, reading) VALUES
  ('CCOCC(=O)N1C[C@@H]2COC[C@]2(c2nc(C)no2)C1', 'Wolbachia pipientis', 'Percent Effect', '%', 107.1),
  ('N#CCCN(CC1CCOC1)S(=O)(=O)c1cccc(Cl)c1 (stereo unspecified)', 'Wolbachia pipientis', 'Percent Effect', '%', -9.345),
  ('O=C(OC1CCC1)c1ncccc1OCC(F)(F)F', 'Wolbachia pipientis', 'Percent Effect', '%', -10.44),
  ('Cc1cc(C)c(C(=O)N(CCO)Cc2ccccc2F)c(=O)[nH]1', 'Wolbachia pipientis', 'Percent Effect', '%', -8.709),
  ('CCc1nc(N2CCCC(CCCOC)(C(=O)O)C2)ncc1C (stereo unspecified)', 'Wolbachia pipientis', 'Percent Effect', '%', -7.437),
  ('CCc1nnc2n1CC(CNc1cnc3ccccc3n1)CC2 (stereo unspecified)', 'Wolbachia pipientis', 'Percent Effect', '%', -8.213);
